Every entry's value here was drawn from patent US6710078B2.

test target: FPTase (Homo sapiens, UniProt P49354+P49356)
assay remarks: in vitro FTase Inhibition Assay, H-Ras as substrate for farnesylation
Assay type: biochemical
measurement context: H-Ras used as substrate for farnesylation
pIC50: −log10 of the molar value.
measured attribute: pIC50

Known pIC50 results, listed for orientation:
In [3]: df
Out[3]:
                                   compound                               test_target  value_measured
0  CC1(c2ccccc2)OC(CC(SCCCCS)c2ccsc2)=CC1=O (stereo not shown)  FPTase (Homo sapiens, UniProt P49354+P49356)            5.82
1  CC1(c2ccccc2)OC(CC(SCCc2cnccn2)c2ccsc2)=CC1=O (stereo not shown)  FPTase (Homo sapiens, UniProt P49354+P49356)          < 5.00
2  CC1(c2ccccc2)OC(CC(SC[C@H](N)C(=O)O)c2ccsc2)=CC1=O (stereo partly shown)  FPTase (Homo sapiens, UniProt P49354+P49356)          < 5.00

Now examine the next entry.
# input Return reported pIC50; argument: CC1(c2ccc(F)cc2)OC(CC(SCCO)c2ccsc2)=CC1=O (stereo not shown)
# output < 5.00

* * *

test target: FPTase (Homo sapiens, UniProt P49354+P49356)
assay remarks: in vitro FTase Inhibition Assay, K-Ras as substrate for farnesylation
Format: biochemical
measurement context: K-Ras used as substrate for farnesylation
pIC50: −log10 of the molar value.
measured attribute: pIC50

Known pIC50 results, listed for orientation:
In [3]: df
Out[3]:
                                   molecule  measured_attribute  value_measured
0  CC1(c2ccccc2)OC(CC(SCCS)c2ccsc2)=CC1=O (stereo not shown)               pIC50            6.00
1  CC1(c2ccc(F)cc2)OC(CC(SC[C@H](O)[C@@H](O)CS)c2ccsc2)=CC1=O (stereo partly shown)               pIC50            6.85

(A) CC1(c2ccccc2)OC(CC(SCC(S)CO)c2ccsc2)=CC1=O (stereo not shown)
(B) CC1(c2ccccc2)OC(CC(SCCCS)c2ccsc2)=CC1=O (stereo not shown)
(C) CC1(c2ccccc2)OC(CC(SC[C@@H](O)[C@H](O)CS)c2ccccc2[N+](=O)[O-])=CC1=O (relative stereo)
# input Let's sort these by pIC50, smallest first. Go ahead? // list labels; follow requested order
# output A, B, C
